target: Glycogen synthase kinase-3 beta (Homo sapiens, UniProt P49841)
Sequence (P49841 whole entry): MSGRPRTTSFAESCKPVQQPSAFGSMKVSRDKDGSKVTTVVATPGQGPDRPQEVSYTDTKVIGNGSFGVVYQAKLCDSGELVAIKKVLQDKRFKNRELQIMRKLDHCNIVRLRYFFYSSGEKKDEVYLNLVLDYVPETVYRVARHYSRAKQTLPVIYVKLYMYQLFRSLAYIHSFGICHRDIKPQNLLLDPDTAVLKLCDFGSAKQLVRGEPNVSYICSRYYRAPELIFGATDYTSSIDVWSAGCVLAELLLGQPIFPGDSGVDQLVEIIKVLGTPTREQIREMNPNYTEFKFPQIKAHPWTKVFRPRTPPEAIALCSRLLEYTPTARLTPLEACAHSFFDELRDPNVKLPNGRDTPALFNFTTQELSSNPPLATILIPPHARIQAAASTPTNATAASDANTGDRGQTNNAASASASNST
observationType: IC50
In your response, the unit should come after the numeric value.

IC50 for Cc1ccc2c(c1)CC[C@H]1[C@@](C)(CO)CCC[C@]21C ?
178 µM
